Value source: paper PMC12416549

Kindly supply the reported apparent Kd (screen) values for the records listed here.
Target: T1, TNFR1 (Homo sapiens, UniProt P19438)
T1 chain: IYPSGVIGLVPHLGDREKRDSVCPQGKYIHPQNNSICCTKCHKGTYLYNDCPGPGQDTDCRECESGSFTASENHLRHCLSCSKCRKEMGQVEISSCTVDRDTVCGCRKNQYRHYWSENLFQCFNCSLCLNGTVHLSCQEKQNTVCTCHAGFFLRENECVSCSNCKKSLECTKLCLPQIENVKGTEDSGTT
Test: yeast display SC50
Report the figure along with its unit, number first.

Record excerpt, results attached:
- binder: "R38N (designed binder) SMEEEVEKAAKEYEKKKKEAIEKHLEKLKAKDKEAAENFLKELEEAAKEYAKDEAKTMSEEEAKRRAKKYKEKVLLSELSEEEQKEIKEAEEKLVRTILKYVEEAAK"
  apparent Kd (screen): "2.48 nM"
- binder: "A67W (designed binder) SMEEEVEKAAKEYEKKKKEAIEKHLEKLKAKDKEAAERFLKELEEAAKEYAKDEAKTMSEEEAKRRWKKYKEKVLLSELSEEEQKEIKEAEEKLVRTILKYVEEAAK"
  apparent Kd (screen): "10.4 nM"
- binder: "A10Q (designed binder) SMEEEVEKAQKEYEKKKKEAIEKHLEKLKAKDKEAAERFLKELEEAAKEYAKDEAKTMSEEEAKRRAKKYKEKVLLSELSEEEQKEIKEAEEKLVRTILKYVEEAAK"
  apparent Kd (screen): "1.4 nM"

Now let's try a different one.
Exam item: Supply reported apparent Kd (screen) belonging to this binder: E7S (designed binder) SMEEEVSKAAKEYEKKKKEAIEKHLEKLKAKDKEAAERFLKELEEAAKEYAKDEAKTMSEEEAKRRAKKYKEKVLLSELSEEEQKEIKEAEEKLVRTILKYVEEAAK
Marked response: 2.73 nM
